// provenance: patent US11236107B2

Molecular target: IDO1 enzyme in Hela cells (Homo sapiens, UniProt P14902)
Construct: recombinant human γ-interferon was added to a final concentration of 100 ng/mL to induce IDO1 expression; endogenous in cells
Sequence (P14902 whole entry): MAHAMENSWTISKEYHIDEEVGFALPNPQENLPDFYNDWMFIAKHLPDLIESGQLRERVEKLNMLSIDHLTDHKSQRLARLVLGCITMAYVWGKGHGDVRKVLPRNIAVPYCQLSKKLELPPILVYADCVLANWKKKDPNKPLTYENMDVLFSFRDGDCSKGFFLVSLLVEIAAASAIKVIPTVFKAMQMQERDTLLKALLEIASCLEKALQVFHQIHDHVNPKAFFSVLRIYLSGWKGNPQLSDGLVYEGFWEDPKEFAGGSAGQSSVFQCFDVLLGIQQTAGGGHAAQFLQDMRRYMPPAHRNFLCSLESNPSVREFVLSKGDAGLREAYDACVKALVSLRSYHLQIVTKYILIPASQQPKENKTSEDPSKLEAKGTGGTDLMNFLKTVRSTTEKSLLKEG
Assay: hIDO1 cytological activity assay (kynurenine in Hela cells by LC-MS)
Conditions: IDO1 induced with 100 ng/mL recombinant human γ-interferon, 20 h, read-out: hIDO1 Cytological active IC50
Reported Property: pIC50
Field pIC50 (float): negative decimal logarithm of the concentration in molar.

Specify measured pIC50 for FC1(F)CCC([C@H]2c3sccc3-c3cncn32)CC1 [Compound of formula I] .
7.13
